- Tested system: T1, biotin-labeled mouse ADM (mouse, not fully specified; biotin label (named mouse ADM-C-biotin in Example 1.4; position of the biotin not stated for the other lots))
- T1 construct: Synthetic peptide; also called mouse ADM-C-biotin; mADM-Biotin
- T1 peptide: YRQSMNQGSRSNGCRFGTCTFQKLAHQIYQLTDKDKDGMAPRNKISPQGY
- Assay notes: BLI (Octet RED96e), as in Example 3
- Procedure: The affinity of antibodies 2004hz00, 2004hz97, and 2004hz99 for biotin-labeled human and mouse ADM (human ADM Cat. No. 894757, mouse ADM Cat. No. 894758, synthesized by GLBiochem) was determined by adopting Octet RED96e (Fortebio). […] The equilibrium dissociation constants (KD) of the antibodies were calculated by measuring the association rates (Kon) and the dissociation rates (Koff) of the antigen-antibody in a 1:1 binding manner by adopting the Data Analysis 12.0 software from Fortebio. […]
koff below 0.0003 s⁻¹ gives Condition not met; koff at or above it gives Condition met.

**Query** koff >= 0.0003 s⁻¹ for Ab2004.Am37 (IgG1 antibody) (antibody, V domains shown, Expressed in CHO cells, human IgG1/kappa) VH: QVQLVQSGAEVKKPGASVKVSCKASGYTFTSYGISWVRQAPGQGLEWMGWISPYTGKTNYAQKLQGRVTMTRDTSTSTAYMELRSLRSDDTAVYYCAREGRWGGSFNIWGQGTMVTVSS VL: DIQMTQSPSSLSASVGDRVTITCRASQGISSYLAWYQQKPGKAPKLLIYDVSILDAGVPSRFSGSGSGTDFTFTISSLQPEDIATYYCQQYDNLPLTFGGGTKVEIKR ?
**Result** Condition met

**Query** Form field: koff at least 0.0003 s⁻¹? Entry: Ab2004.Am39 (IgG1 antibody) (antibody, V domains shown, Expressed in CHO cells, human IgG1/kappa) VH: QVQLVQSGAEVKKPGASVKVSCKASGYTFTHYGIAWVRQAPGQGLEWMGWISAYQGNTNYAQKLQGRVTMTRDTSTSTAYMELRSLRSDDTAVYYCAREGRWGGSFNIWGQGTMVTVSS VL: DIQMTQSPSSLSASVGDRVTITCRASQGISSYLAWYQQKPGKAPKLLIYDASNLETGVPSRFSGSGSGTDFTFTISSLQPEDIATYYCQQYDDLDLTFGGGTKVEIKR
**Result** Condition not met

**Query** Threshold query (koff >= 0.0003 s⁻¹) on Ab2004.Am34 (IgG1 antibody) (antibody, V domains shown, Expressed in CHO cells, human IgG1/kappa) VH: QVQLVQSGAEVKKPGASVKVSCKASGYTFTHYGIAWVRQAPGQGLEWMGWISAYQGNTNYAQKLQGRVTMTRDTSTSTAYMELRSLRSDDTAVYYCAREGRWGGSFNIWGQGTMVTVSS VL: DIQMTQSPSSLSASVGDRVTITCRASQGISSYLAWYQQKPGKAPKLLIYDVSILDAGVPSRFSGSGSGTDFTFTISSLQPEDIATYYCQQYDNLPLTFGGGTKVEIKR
**Result** Condition not met

**Query** // inclusive: koff at least 0.0003 s⁻¹? input: Ab2004.Am32 (IgG1 antibody) (antibody, V domains shown, Expressed in CHO cells, human IgG1/kappa) VH: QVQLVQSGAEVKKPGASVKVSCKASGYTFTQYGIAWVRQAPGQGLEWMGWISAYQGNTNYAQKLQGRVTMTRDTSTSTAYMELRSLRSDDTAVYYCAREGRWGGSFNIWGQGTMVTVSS VL: DIQMTQSPSSLSASVGDRVTITCRAAEGIGSYLAWYQQKPGKAPKLLIYDASNLETGVPSRFSGSGSGTDFTFTISSLQPEDIATYYCQQYDNLPLTFGGGTKVEIKR
**Result** Condition not met

**Query** In plain terms: is recorded koff at least 0.0003 s⁻¹ for Ab2004.Am31 (IgG1 antibody) (antibody, V domains shown, Expressed in CHO cells, human IgG1/kappa) VH: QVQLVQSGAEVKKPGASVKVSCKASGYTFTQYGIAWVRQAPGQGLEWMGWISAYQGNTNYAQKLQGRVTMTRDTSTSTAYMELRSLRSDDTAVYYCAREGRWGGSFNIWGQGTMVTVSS VL: DIQMTQSPSSLSASVGDRVTITCRASEGISEYLAWYQQKPGKAPKLLIYDASNLETGVPSRFSGSGSGTDFTFTISSLQPEDIATYYCQQYDNLPLTFGGGTKVEIKR ?
**Result** Condition not met

**Query** Kindly determine if koff recorded for Ab2004.Am36 (IgG1 antibody) (antibody, V domains shown, Expressed in CHO cells, human IgG1/kappa) VH: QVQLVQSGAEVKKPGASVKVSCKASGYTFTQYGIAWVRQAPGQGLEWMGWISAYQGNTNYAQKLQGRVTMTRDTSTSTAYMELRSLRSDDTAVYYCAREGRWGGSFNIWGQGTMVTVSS VL: DIQMTQSPSSLSASVGDRVTITCRASQGISSYLAWYQQKPGKAPKLLIYDASNVDTGVPSRFSGSGSGTDFTFTISSLQPEDIATYYCQQYDNLPLTFGGGTKVEIKR is above or exactly 0.0003 s⁻¹.
**Result** Condition not met

**Query** Does the reported koff for fully human antibody Ab2004.Am01 (expressed antibody) (antibody, V domains shown, also called parent antibody Ab2004.Am01) VH: QVQLVQSGAEVKKPGASVKVSCKASGYTFTSYGISWVRQAPGQGLEWMGWISAYQGNTNYAQKLQGRVTMTRDTSTSTAYMELRSLRSDDTAVYYCAREGRWGGSFNIWGQGTMVTVSS VL: DIQMTQSPSSLSASVGDRVTITCRASQGISSYLAWYQQKPGKAPKLLIYDASNLETGVPSRFSGSGSGTDFTFTISSLQPEDIATYYCQQYDNLPLTFGGGTKVEIK fall at or above the 0.0003 s⁻¹ mark?
**Result** Condition met

**Query** Hi, just wondering whether Ab2004.Am35 (IgG1 antibody) (antibody, V domains shown, Expressed in CHO cells, human IgG1/kappa) VH: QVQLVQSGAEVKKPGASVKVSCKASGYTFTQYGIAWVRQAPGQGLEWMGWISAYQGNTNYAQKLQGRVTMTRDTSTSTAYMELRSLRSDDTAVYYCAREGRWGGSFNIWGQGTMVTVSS VL: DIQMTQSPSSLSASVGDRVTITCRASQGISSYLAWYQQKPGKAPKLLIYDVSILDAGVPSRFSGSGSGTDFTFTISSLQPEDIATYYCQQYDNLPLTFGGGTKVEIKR shows koff of 0.0003 s⁻¹ or higher.
**Result** Condition not met

**Query** Is it the case that Ab2004.Am40 (IgG1 antibody) (antibody, V domains shown, Expressed in CHO cells, human IgG1/kappa) VH: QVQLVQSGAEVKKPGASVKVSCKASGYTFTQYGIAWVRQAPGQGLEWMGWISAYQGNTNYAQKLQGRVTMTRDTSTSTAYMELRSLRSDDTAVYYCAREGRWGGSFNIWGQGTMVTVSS VL: DIQMTQSPSSLSASVGDRVTITCRASQGISSYLAWYQQKPGKAPKLLIYDASNLETGVPSRFSGSGSGTDFTFTISSLQPEDIATYYCQQYDDLPLSFGGGTKVEIKR has koff reaching or exceeding 0.0003 s⁻¹?
**Result** Condition not met

**Query** Does Ab2004.Am33 (IgG1 antibody) (antibody, V domains shown, Expressed in CHO cells, human IgG1/kappa) VH: QVQLVQSGAEVKKPGASVKVSCKASGYTFTSYGISWVRQAPGQGLEWMGWISPYSGNTNYAQKLQGRVTMTRDTSTSTAYMELRSLRSDDTAVYYCAREGRWGGSFNIWGQGTMVTVSS VL: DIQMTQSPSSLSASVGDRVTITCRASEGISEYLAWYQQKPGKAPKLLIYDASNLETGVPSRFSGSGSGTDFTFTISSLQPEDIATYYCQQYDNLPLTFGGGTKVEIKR have a reported koff of at least 0.0003 s⁻¹?
**Result** Condition met
